assay: Single-dose pharmacokinetics in healthy volunteers under fasting and fed (high-fat breakfast) conditions, plasma concentrations by HPLC-MS, non-compartmental analysis; assay type: in vivo, human; conditions: male, human, plasma, oral, only CYP2C19*1/*1 subjects, Fast, men, mean ± SD; read-out: Cmax
# Lookup of reported Cmax keyed by entry

# molecule, Cmax, ng/mL
records = [
    ("COc1ccnc(C[S+]([O-])c2nc3ccc(OC(F)F)cc3[nH]2)c1OC (stereo not drawn)", 2020),
    ("COCCCOc1ccnc(C[S+]([O-])c2nc3ccccc3[nH]2)c1C (stereo not drawn)", 512),
    ("COc1ccc2[nH]c([S+]([O-])Cc3ncc(C)c(OC)c3C)nc2c1 (stereo not drawn)", 654),
]

----------
# Lookup of reported Tmax keyed by entry
assay: Single-dose pharmacokinetics in healthy volunteers under fasting and fed (high-fat breakfast) conditions, plasma concentrations by HPLC-MS, non-compartmental analysis; type: in vivo, human; settings: both sexes, human, plasma, oral, under fed conditions, range among subjects; read-out: Tmax range

# compound, Tmax
data = [
    ("COc1ccnc(C[S+]([O-])c2nc3ccc(OC(F)F)cc3[nH]2)c1OC (stereo not drawn) [Pantoprazole, pantoprazole]", "1 to 21 h"),
    ("COc1ccc2[nH]c([S+]([O-])Cc3ncc(C)c(OC)c3C)nc2c1 (stereo not drawn) [Omeprazole, omeprazole]", "1 to 17 h"),
    ("COCCCOc1ccnc(C[S+]([O-])c2nc3ccccc3[nH]2)c1C (stereo not drawn) [Rabeprazole, rabeprazole]", "3 to 20 h"),
]

----------
# Lookup of reported CL/F keyed by entry
test: Single-dose pharmacokinetics in healthy volunteers under fasting and fed (high-fat breakfast) conditions, plasma concentrations by HPLC-MS, non-compartmental analysis; assay type: in vivo, human; conditions: both sexes, human, plasma, po, Fed (high-fat breakfast), all subjects, single oral dose, mean ± SD

# compound, u, CL/F
measured = [
    ("COCCCOc1ccnc(C[S+]([O-])c2nc3ccccc3[nH]2)c1C (stereo not drawn)", "mL/min/kg", 5.67),
    ("COc1ccnc(C[S+]([O-])c2nc3ccc(OC(F)F)cc3[nH]2)c1OC (stereo not drawn)", "mL/min/kg", 2.67),
    ("COc1ccc2[nH]c([S+]([O-])Cc3ncc(C)c(OC)c3C)nc2c1 (stereo not drawn)", "mL/min/kg", 10.7),
]

----------
# Lookup of reported CL/F keyed by entry
experiment: Single-dose pharmacokinetics in healthy volunteers under fasting and fed (high-fat breakfast) conditions, plasma concentrations by HPLC-MS, non-compartmental analysis; format: in vivo, human; conditions: male, human, plasma, oral, only CYP2C19*1/*1 subjects, Fed, men, mean ± SD

# compound, CL/F
rows = [
    ("COc1ccc2[nH]c([S+]([O-])Cc3ncc(C)c(OC)c3C)nc2c1 (stereo not drawn)", "10.5 mL/min/kg"),
    ("COCCCOc1ccnc(C[S+]([O-])c2nc3ccccc3[nH]2)c1C (stereo not drawn)", "5 mL/min/kg"),
    ("COc1ccnc(C[S+]([O-])c2nc3ccc(OC(F)F)cc3[nH]2)c1OC (stereo not drawn)", "2.5 mL/min/kg"),
]

----------
experiment: Single-dose pharmacokinetics in healthy volunteers under fasting and fed (high-fat breakfast) conditions, plasma concentrations by HPLC-MS, non-compartmental analysis; format: in vivo, human; conditions: male, human, plasma, po, Fast, men, single oral dose, mean ± SD

# compound, AUC(0-inf), ng·h/mL
records = [
    ("COc1ccc2[nH]c([S+]([O-])Cc3ncc(C)c(OC)c3C)nc2c1 (stereo not drawn) [Omeprazole, omeprazole]", 2380),
    ("COc1ccnc(C[S+]([O-])c2nc3ccc(OC(F)F)cc3[nH]2)c1OC (stereo not drawn) [Pantoprazole, pantoprazole]", 6580),
    ("COCCCOc1ccnc(C[S+]([O-])c2nc3ccccc3[nH]2)c1C (stereo not drawn) [Rabeprazole, rabeprazole]", 836),
]
